The entries below are paired with their reported IC50.
molecular target: BRM (Homo sapiens, UniProt P51531); test: ATPase catalytic activity assay (ADP-Glo), BRM; conditions: BRM ATPase: IC50 (uM), 30 nM BRM, 400 μM ATP
Sequence (P51531 whole entry): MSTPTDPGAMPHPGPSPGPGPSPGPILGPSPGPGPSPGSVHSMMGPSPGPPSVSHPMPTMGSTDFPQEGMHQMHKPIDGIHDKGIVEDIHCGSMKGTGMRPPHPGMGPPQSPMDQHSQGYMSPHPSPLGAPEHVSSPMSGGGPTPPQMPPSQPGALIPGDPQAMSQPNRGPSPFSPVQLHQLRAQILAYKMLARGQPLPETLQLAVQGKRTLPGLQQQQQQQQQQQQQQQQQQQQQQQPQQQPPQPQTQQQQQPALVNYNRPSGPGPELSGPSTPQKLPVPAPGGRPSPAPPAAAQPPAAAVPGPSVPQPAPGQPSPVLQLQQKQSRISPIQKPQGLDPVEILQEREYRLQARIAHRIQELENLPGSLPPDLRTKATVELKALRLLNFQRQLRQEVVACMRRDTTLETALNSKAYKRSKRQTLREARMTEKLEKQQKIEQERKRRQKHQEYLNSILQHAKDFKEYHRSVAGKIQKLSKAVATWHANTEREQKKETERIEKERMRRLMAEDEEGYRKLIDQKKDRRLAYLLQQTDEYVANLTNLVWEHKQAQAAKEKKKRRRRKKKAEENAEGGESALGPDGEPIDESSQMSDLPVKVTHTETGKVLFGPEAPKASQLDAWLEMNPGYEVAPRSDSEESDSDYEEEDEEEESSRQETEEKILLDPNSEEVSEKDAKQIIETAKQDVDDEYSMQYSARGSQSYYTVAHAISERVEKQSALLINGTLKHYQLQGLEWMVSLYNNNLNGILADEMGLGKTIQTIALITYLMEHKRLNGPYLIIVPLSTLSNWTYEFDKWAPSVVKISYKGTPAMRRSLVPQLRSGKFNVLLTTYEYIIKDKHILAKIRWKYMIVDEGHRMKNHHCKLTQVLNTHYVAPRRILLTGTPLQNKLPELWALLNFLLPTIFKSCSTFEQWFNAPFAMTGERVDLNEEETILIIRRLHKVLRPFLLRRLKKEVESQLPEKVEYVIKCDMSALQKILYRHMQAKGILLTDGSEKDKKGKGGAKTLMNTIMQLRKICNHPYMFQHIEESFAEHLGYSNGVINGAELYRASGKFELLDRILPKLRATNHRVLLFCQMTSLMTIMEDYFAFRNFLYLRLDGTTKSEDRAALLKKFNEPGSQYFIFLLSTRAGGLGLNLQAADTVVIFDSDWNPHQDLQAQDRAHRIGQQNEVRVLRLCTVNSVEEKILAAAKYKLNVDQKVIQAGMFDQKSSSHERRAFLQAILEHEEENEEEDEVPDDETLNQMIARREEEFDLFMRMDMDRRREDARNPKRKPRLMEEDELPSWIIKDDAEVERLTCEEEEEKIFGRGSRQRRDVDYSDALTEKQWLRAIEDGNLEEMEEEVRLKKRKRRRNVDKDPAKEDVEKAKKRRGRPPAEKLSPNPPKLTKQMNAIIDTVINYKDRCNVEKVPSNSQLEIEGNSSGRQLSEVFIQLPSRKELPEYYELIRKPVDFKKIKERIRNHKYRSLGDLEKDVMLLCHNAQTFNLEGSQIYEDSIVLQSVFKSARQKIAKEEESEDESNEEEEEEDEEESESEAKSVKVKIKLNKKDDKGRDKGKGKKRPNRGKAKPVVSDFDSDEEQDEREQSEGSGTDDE

| Record Smiles | IC50 |
| --- | --- |
| O=C(NCc1cc2nc(-c3cncc(C4CC4)n3)ccc2cn1)c1cnc2c(c1)[C@](F)(C(F)F)COC2 | < 0.1 µM |
| C[C@@]1(C#N)COCc2ccc(C(=O)NCc3cc4c(cn3)CCN(c3ccnc(N5CCC5)n3)C4)cc21 | 0.1 to 0.5 µM |
| C[C@@]1(C#N)COCc2ccc(C(=O)NCc3cc4c(cn3)CCN(c3ccnc(N5CCCC5)n3)C4)cc21 | 0.1 to 0.5 µM |
| COc1c(F)cccc1-c1ccc2cnc(CNC(=O)c3ccc4c(c3)[C@](C)(C#N)COC4)cc2n1 | 0.1 to 0.5 µM |

---

biological target: BRM (Homo sapiens, UniProt P51531); assay: ATPase catalytic activity assay (ADP-Glo), BRM; settings: 30 nM BRM, 400 μM ATP

| Compound | Unit Of Measure | BRM Max % Inhibition |
| --- | --- | --- |
| C[C@@]1(F)COCc2ccc(C(=O)NCc3cc4cc(-c5ccnn(C6CC6)c5=O)ccc4cn3)cc21 | % | 92 |
| COCc1cc2c(-c3ccc4cnc(CNC(=O)c5ccc6c(c5)[C@](C)(C#N)COC6)cc4n3)cccc2n1C | % | 100 |
| COC1CN(c2nccc(-c3ccc4cnc(CNC(=O)c5ccc6c(c5)[C@](C)(C#N)COC6)cc4n3)n2)C1 | % | 100 |
| COc1nn(C)cc1-c1cnc2cnc(CNC(=O)c3ccc4c(c3)[C@](C)(C#N)COC4)cc2c1 | % | 94 |
| C[C@@]1(C#N)COCc2ncc(C(=O)NCc3cc4nc(-c5cncc(C6CC6)n5)ccc4cn3)cc21 | % | 99 |
| C[C@@]1(C#N)COCc2ccc(C(=O)NCc3cc4nc(-c5ccc(C(F)F)cc5)ccc4cn3)cc21 | % | 96 |
| CN(C)C(=O)c1cccc(C#Cc2ccnc(CNC(=O)c3ccc4c(c3)[C@](C)(C#N)COC4)c2)c1 | % | 89 |
| CCn1ccc2c(-c3ccc4cnc(CNC(=O)c5ccc6c(c5)[C@](C)(C#N)COC6)cc4n3)cccc21 | % | 99 |
| CN(C)c1cccc(-c2ccc3cnc(CNC(=O)c4ccc5c(c4)[C@](C)(C#N)COC5)cc3n2)n1 | % | 99 |
| C[C@@]1(C#N)COCc2ccc(C(=O)NCc3cc4cc(-c5cncc(C6CC6)n5)cnc4cn3)cc21 | % | 97 |
| O=C(NCc1cc2nc(-c3cncc(C4CC4)n3)ccc2cn1)c1cnc2c(c1)[C@@](F)(C(F)F)CCO2 | % | 81 |
| CN1CCC(C(=O)N2CCN(c3cccc(-c4ccc5cnc(CNC(=O)c6ccc7c(c6)[C@](C)(C#N)COC7)cc5n4)n3)CC2)CC1 | % | 99 |
| COc1nn(C2CC2(F)F)cc1-c1ccc2cnc(CNC(=O)c3ccc4c(c3)[C@](C)(C#N)COC4)cc2n1 (some centres unmarked) | % | 94 |
| C[C@@]1(C#N)COCc2ccc(C(=O)NCc3cc([C@H]4C[C@H](c5ccccc5)C4)ccn3)cc21 | % | 93 |
| C[C@@]1(C#N)COCc2ccc(C(=O)NCc3cc4nc(C5CCOCC5)ccc4cn3)cc21 | % | 71 |
| COc1nn(C2COC2)cc1-c1ccc2cnc(CNC(=O)c3ccc4c(c3)[C@](C)(C#N)COC4)cc2n1 | % | 100 |
| Cc1nccc(-c2ccc3cnc(CNC(=O)c4ccc5c(c4)[C@](C)(C#N)COC5)cc3n2)n1 | % | 93 |
| COc1cc(C2CCC2)ccc1-c1ccc2cnc(CNC(=O)c3ccc4c(c3)[C@](C)(C#N)COC4)cc2n1 | % | 96 |
| C[C@@]1(C#N)COCc2ccc(C(=O)NCc3cc4nc(-c5ccccc5C(F)F)ccc4cn3)cc21 | % | 85 |
| C[C@@]1(F)COCc2ccc(C(=O)NCc3cc4nc(-c5ccccc5)ccc4cn3)cc21 | % | 96 |
